# Tested on: MS2 coat protein
# procedure details: apparent KD of MS2 coat protein; designed switch direction (-1 OFF switch, 1 ON switch): 1; higher = weaker reporter binding
# test conditions: input ligand: microRNA oligo, concentration not stated
Here, each record is paired with measured apparent KD of MS2 coat protein data.
The figure you give is taken to be in nM; do not add the unit.

AGUGGAGCCUGAGCUCCACAAAAGCAUGUACAUGAGGAUCACCCAUGUCAUGUACAAGCUUUUUGCUCGUCUUAAAA [Mat - hsa-mir-208a - Mod of JL - D18] (Eterna round: R96, puzzle: Sensor for hsa-mir-208a)
14

Q: Would you kindly share the measured apparent KD of MS2 coat protein for AGUAGUUUAACAUGAGGAUCACCCAUGUAUCUAUCUGUAACCUAGGAUAUGGAGGUUUUAUUUAACCAGAAGGAGGAUUGUUUA [JR_SSNG3_Sub044] (Eterna round: R96, puzzle: Same State NG 3) ?
Result: 17.6

----------
# Tested on: K4 kissing-loop RNA reporter
# procedure details: apparent KD of K4 kissing-loop reporter; higher = weaker reporter binding
# test conditions: Eterna round: R107; input ligand: FMN 200 uM
Values of apparent KD of K4 kissing-loop reporter greater than or equal to 200 nM map to condition met; values below map to condition not met.

GAUACGAAGCAGUGAUGUUGCUUAUGAGAAGGAGCGCACGAAAGUGCAGGUAGGUCGCUCAGCCAUGUGGACGAAAACGUCCACA [whbob_SS_Arginine_A_sa111]
condition not met
UUUUAAUGCAGUGAUGUUGCUAAUAAAACAGAGGAUAUGCAUGGAAGCAGAAGGCUGAAAUAUUAUACUUUAAUAAAUUAUAUUU [JR_SSFMNA_Sub010]
condition not met
AAUGUACAAGUGAUGUUUGUACUUUCCGAAGGAGCGUCUAAUAAGACAGGUAGGUCGCGGAUUCUCUUAAUUAUCAGGUCAUUAA [JR_ExcArginiA_Sub017]
condition not met
CGAGUACAUUGCGAUACCAGCGAUAGCAGUUCAACGCGCAGUCCGUUUAGUGAUGUUAGACGCCCUUGGCAGCGCUUCCUGGCAA [theeternabot_exclusion_KL_Theo_B_44]
condition met

Q: Hello, I need to know if AUACGUUUCAGAGGAUAUCGGAGGAGAGUGAUGUUCUCCCAUAGCCCAGUGAUGUUGGAAGCUAUCCGAGAAGGCUGUGGGCGUA [Same State FMN B GF 15] has measured apparent KD of K4 kissing-loop reporter not below 200 nM. Thanks!
Result: condition not met

Q: Hello, I need to know if UGAUAGGACAGAAGGAGCGGGAGUGAUGUUCCCAAAAGUAUAAGGUGUCAAAAGACACCCUCCCAGGUAGGUCGCUGUCCUAUCU has measured apparent KD of K4 kissing-loop reporter not below 200 nM. Thanks!
Result: condition not met

Q: Hello, I need to know if AAAUAGAUCAGUCACCCAGUGAUGUUGGAAGGAGCGUGCGAAAGCACAGGUAGGUCGCCGAAAUAAAAUUGGCUGAUCAAAAUAA has measured apparent KD of K4 kissing-loop reporter not below 200 nM. Thanks!
Result: condition not met

----------
# Tested on: K4 kissing-loop RNA reporter;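 also: bound reporter read as fluorescence of individual clusters on recovered sequencing chips by microscopy, with normalized cluster intensities fitted with a binding model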
# procedure details: apparent KD of K4 kissing-loop reporter; higher = weaker reporter binding
# test conditions: Eterna round: R107; input ligand: FMN 200 uM
Values of apparent KD of K4 kissing-loop reporter greater than or equal to 300 nM map to MET; values below map to NOT MET.

Reference set, count: 2
UUGGAGUGAUGUUCCAUAUCUUGAGCCGAAGGAGCGGCAUUAUUGCCAGGUAGGUCGCGGCAGAAGGUACCAGUGAUGUUGGAAA [Same State Arginine A GF 4]
NOT MET
GAUUUAGAGGCGGCCGCCACUAGUGAUGUUAGUGAUGUUUGAUACUGUAUAUAUCGGCGUGUAGAUAGGACCGGGCCAGAUGGAG [tbqqmullin]
NOT MET

Q: Hello, I need to know if GGGUAUUACGGAGGAUAUGCACUGAGGAGGAGAAUAUAGUGAUGUUAUAUAAGAGGAAGGAGAAGAGUAGAAGGCCGUGGUGUUU [SSFMNB.J] has measured apparent KD of K4 kissing-loop reporter not below 300 nM. Thanks!
Result: NOT MET

Q: Hello, I need to know if GGAGGGAUCUCGGCCGCCACUCAUAAGAAAUGGGCCUCAGAGAUAUAGUGAUGUUAUGUAAAGAAGAGGACCGGGAGAAAGAAGG [ExTryptoB.Db] has measured apparent KD of K4 kissing-loop reporter not below 300 nM. Thanks!
Result: NOT MET

Q: Hello, I need to know if UCGGCAAAGUCGGCCGCCACUCCGGGCCCUAUAAAUGGGCGCAGUGAUGUUGCGGCUAGGCCUCUGAGGACCGGGACUUUGUAAA [Atordied] has measured apparent KD of K4 kissing-loop reporter not below 300 nM. Thanks!
Result: NOT MET

Q: Hello, I need to know if AUUCUGUUUUUGAUGUUUAUUGUAUAAUGGCAGGAUAUCGUAGAAGCGAGAAGGGCUUUUAUGCGUUAUGAGUGAUGUUUGUAGG [eyeefvmullin] has measured apparent KD of K4 kissing-loop reporter not below 300 nM. Thanks!
Result: MET

Q: Hello, I need to know if CCUAUCUCAUACGAUACCAGUCAAUGAUAUUUUAUCAAUGCCAUCACCGAGUGAUGUUCGGACCCUUGGCAGCGUAUGGGAUAGG [whbob_Ex_Theo_B_sa101] has measured apparent KD of K4 kissing-loop reporter not below 300 nM. Thanks!
Result: NOT MET

Q: Hello, I need to know if AUUCUUUUUUUGAUGUUUUUUGUAUAAUGGCAGGAUAUCGUAGAAGCGAGAAGGGCUUUUAUGCGUUAUGAGUGAUGUUUGUAGG [szeewvmullin] has measured apparent KD of K4 kissing-loop reporter not below 300 nM. Thanks!
Result: NOT MET

Q: Hello, I need to know if UGUACCGAGUCAGGAUAUGGCGUCGAAAGACGAAUCCUAGUGAUGUUAGUGAUCUGCGAAAGCAGUCCAGAAGGGACUUGGUACU [FmnBS 26 U50] has measured apparent KD of K4 kissing-loop reporter not below 300 nM. Thanks!
Result: NOT MET

Q: Hello, I need to know if AUGCGUGAUGCUCAAAGAGUAUCACCCGAUACCAGUAUGGAAACAUACCCUUGGCAGCGGGUAACUGCCCAGUGAUGUUGGACGC [Theophylline A K4 10] has measured apparent KD of K4 kissing-loop reporter not below 300 nM. Thanks!
Result: NOT MET

Q: Hello, I need to know if GCCGUACGCAUGGAUACCAGCACUCGUUGAGUGAUGUUCACGAGGUGGUAUUCGACGGGCUGCCCUUGGCAGCCAUGCGUACGGC has measured apparent KD of K4 kissing-loop reporter not below 300 nM. Thanks!
Result: NOT MET

Q: Hello, I need to know if UGUGUUGUUUUGAUGUUUGUUGUAAAAUGGCAGGAUAUCGUAGAGGCGAGAAGGGCUUUUAUGCGUUAUGAGUGAUGUUUGUAGG [zvvczmullin] has measured apparent KD of K4 kissing-loop reporter not below 300 nM. Thanks!
Result: MET

Q: Hello, I need to know if UACUAUAGUGAUGUUAUAGAUAAAACAGAUACCAGUGUAACAUAACACCCUUGGCAGCUGAUAAGGGAAAGUAUAAAUGUGUAUU [AstrosSSTHe-A#2newdesignED] has measured apparent KD of K4 kissing-loop reporter not below 300 nM. Thanks!
Result: NOT MET

Q: Hello, I need to know if GUGAGGAUCCGAAGGAGCGUCCGCAAUCCAGUGAUGUUGGGUGUUGGUUAUAUUUAACGAGGACAGGUAGGUCGCGGAUUUUCAA [Same State Arginie B GF 22] has measured apparent KD of K4 kissing-loop reporter not below 300 nM. Thanks!
Result: NOT MET
